System: P388 leukemia ip, CD2F1 mice, survival T/C
assay overview: NCI In Vivo Anticancer Drug Screen. Data for tumor model P388 Leukemia (intraperitoneal) in CD2F1 (CDF1) mice
experimental conditions: endpoint: median survival time; dose: 240.0 mg/kg/injection; schedule: Q01DX005 (ip); vehicle: saline with Tween-80; higher = longer survival
Inconclusive results and toxic doses are left out.
Consider the following molecules; for each one, report its T/C.

QUERY: I'd like to know its T/C. The molecule in question is N#CC(C#N)=C(O)/C(=C/c1ccc(Cl)cc1Cl)NC(=O)c1ccccc1
RESULT: 100 % of control

QUERY: And then Nc1nc(Cc2ccccc2)c(-c2ccccc2)c(-c2nc(N)nc(Cc3ccccc3)c2-c2ccccc2)n1 , what is it?
RESULT: 99 % of control

QUERY: And then Cc1cc(-c2c(C)[nH]n(-c3cc(C)c4cc(F)ccc4n3)c2=O)n(-c2cc(C)c3cc(F)ccc3n2)n1 , what is it?
RESULT: 98 % of control

QUERY: And then CC(C)C(=O)CC1(O)C(=O)Nc2ccc([N+](=O)[O-])cc21 (centres undefined) , what is it?
RESULT: 91 % of control

QUERY: And then NS(=O)(=O)c1cc2c(cc1Cl)NC(Cc1ccccc1)NS2(=O)=O (centres undefined) , what is it?
RESULT: 93 % of control

QUERY: And then CCn1c(=O)c(Cl)c2n(CC)c3ccccc3n2c1=O , what is it?
RESULT: 87 % of control

QUERY: And then O=C1c2cc([N+](=O)[O-])ccc2-c2c(N=Cc3ccc4c(c3)OCO4)cccc21 , what is it?
RESULT: 99 % of control

QUERY: And then O=C1OC(C2OC(=O)C(=O)C2C(=O)c2cccc([N+](=O)[O-])c2)C(C(=O)c2cccc([N+](=O)[O-])c2)C1=O (centres undefined) , what is it?
RESULT: 100 % of control

QUERY: And then Brc1cc(Br)cc(CN2CCOCC2)c1 , what is it?
RESULT: 106 % of control

QUERY: And then CC1=CC2=C(C#N)C(=O)OC2(C)C(c2ccccc2)C1 (centres undefined) , what is it?
RESULT: 100 % of control

QUERY: And then Cc1ncc(CO)c(C2NCCS2)c1O (centres undefined) , what is it?
RESULT: 107 % of control

QUERY: And then COc1ccc(C2=NNC(=O)C3NC(=O)C(C#N)=C(C(=O)NN)C23c2ccc(OC)cc2)cc1 (centres undefined) , what is it?
RESULT: 89 % of control

QUERY: And then COc1ccc(NC(=O)N2CC3CCN2CC3)cc1 , what is it?
RESULT: 90 % of control

QUERY: And then CN(C)c1ccc([N+]([O-])=Nc2ccc3ccccc3c2)cc1 , what is it?
RESULT: 90 % of control

QUERY: And then O=C(O)C1CCC(=O)N1Cc1c[nH]c2ccccc12 (centres undefined) , what is it?
RESULT: 97 % of control

QUERY: And then O=[N+]([O-])c1ccccc1S(=O)NCc1c(Cl)cccc1Cl (centres undefined) , what is it?
RESULT: 100 % of control

QUERY: And then CCON1C(=O)C(C)c2ccccc21 (centres undefined) , what is it?
RESULT: 102 % of control

QUERY: And then N#CC(OC(OC(C#N)c1ccccc1)c1ccccc1)c1ccccc1 (centres undefined) , what is it?
RESULT: 89 % of control

QUERY: And then CCOc1ccc(/C=N/NC(=O)CC2CCCCC2)cc1OC , what is it?
RESULT: 95 % of control

QUERY: And then COC(=O)C1=C(C(=O)OC)NC2=C(C=N1)CCC2 , what is it?
RESULT: 91 % of control

QUERY: And then COc1cc(-c2cc(O)c(-c3ccc4ccccc4n3)c(=O)[nH]2)cc(OC)c1OC , what is it?
RESULT: 90 % of control

QUERY: And then O=C1c2ccccc2C(=O)c2c3c(cc([N+](=O)[O-])c21)OCO3 , what is it?
RESULT: 87 % of control

QUERY: And then C/C(CCl)=N/NC1=NC(c2ccccc2Cl)P(=O)(NCCCNP2(=O)SC(N/N=C(/C)CCl)=NC2c2ccccc2Cl)S1 (centres undefined) , what is it?
RESULT: 93 % of control

QUERY: And then COc1ccc2cc(C(=O)c3ccccc3)c(=O)oc2c1 , what is it?
RESULT: 96 % of control

QUERY: And then C/C(CCCC(C)(C)C(=O)O)=N\NC(N)=O , what is it?
RESULT: 97 % of control

QUERY: And then O=C(CCCl)Nc1cc2ccccc2oc1=O , what is it?
RESULT: 89 % of control

QUERY: And then Cc1ccc(S(=O)(=O)OCC2(COS(=O)(=O)c3ccc(C)cc3)CCC2)cc1 , what is it?
RESULT: 100 % of control

QUERY: And then CC(C)(C)SC(=S)SCC(=O)c1ccc(Cl)cc1 , what is it?
RESULT: 100 % of control

QUERY: And then O=C1C=CC(Nc2ccc(Cl)c(Cl)c2)C1Nc1ccc(Cl)c(Cl)c1 (centres undefined) , what is it?
RESULT: 93 % of control

QUERY: And then O=C(Nc1ccc(Cl)cc1)Nc1nnc(COc2ccc(Cl)c(Cl)c2)o1 , what is it?
RESULT: 91 % of control

QUERY: And then O=C(Nc1ccc(Cl)c(Cl)c1)/C(Cl)=C1/Sc2ccccc2NC1=O , what is it?
RESULT: 105 % of control

QUERY: And then CSc1nnc(CCC(=O)Nc2cc(Cl)c(Cl)cc2Cl)o1 , what is it?
RESULT: 98 % of control

QUERY: And then O=Cc1cc(-c2ccccc2)n(-c2ccccc2)c1-c1ccccc1 , what is it?
RESULT: 97 % of control

QUERY: And then O=C1Sc2ccccc2C(=O)N2CCCC12 (centres undefined) , what is it?
RESULT: 100 % of control

QUERY: And then CC(C)c1ccc(/C=C(/NC(=O)c2ccccc2)c2nc3ccccc3s2)cc1 , what is it?
RESULT: 118 % of control

QUERY: And then Cc1ccccc1NC(=O)Oc1ccc(Cl)cc1C(=O)c1ccccc1 , what is it?
RESULT: 103 % of control

QUERY: And then COc1ccc(C(Cc2ccccc2)C2(O)C(=O)NC(=O)NC2=O)cc1 (centres undefined) , what is it?
RESULT: 98 % of control

QUERY: And then COC(=O)c1cc(Nc2ccccc2)c2ncccc2c1O , what is it?
RESULT: 98 % of control

QUERY: And then O=[N+]([O-])/N=c1/nc2scc(-c3ccc([N+](=O)[O-])cc3)n2s1 , what is it?
RESULT: 87 % of control

----------
Test system: P388 leukemia ip, CD2F1 mice, survival T/C
assay overview: NCI In Vivo Anticancer Drug Screen. Data for tumor model P388 Leukemia (intraperitoneal) in CD2F1 (CDF1) mice
experimental conditions: endpoint: median survival time; dose: 60.0 mg/kg/injection; schedule: Q01DX005 (ip); vehicle: saline; higher = longer survival
Toxic doses and inconclusive results are not listed.
parameter measured: T/C

QUERY: I'd like to know its T/C. The compound in question is COC(=O)C(CCc1ccc([N+](=O)[O-])cc1)C(C)=O (stereo unspecified)
RESULT: 102 % of control

QUERY: And then O=C(CC1=NC2NN(c3ccccc3)C(=O)C2=C1CC(=O)c1ccccc1)c1ccccc1 (stereo unspecified) , what is it?
RESULT: 100 % of control

QUERY: And then [O-][N+]1(CC[N+]2([O-])CCCCC2)CCCCC1 , what is it?
RESULT: 97 % of control

QUERY: And then COc1ccc(C(=O)C(C)(c2nc3n(c2O)C(=N)N=N3)c2nc3n(c2O)C(=N)N=N3)cc1 (stereo unspecified) , what is it?
RESULT: 100 % of control

QUERY: And then COc1cc(/C=C2/Cc3ccccc3C2=O)ccc1O , what is it?
RESULT: 106 % of control

QUERY: And then COc1ccc(C(=O)C(CN2CCOCC2)CN2CCOCC2)cc1 , what is it?
RESULT: 96 % of control

QUERY: And then CS/C(=C\c1ccc2ccccc2[n+]1C)N1CCN(CCCO)CC1 , what is it?
RESULT: 95 % of control

QUERY: And then CC(=O)OCC1OC(Nc2[nH]c(=O)[nH]c(=O)c2N=O)C(OC(C)=O)C(OC(C)=O)C1OC(C)=O (stereo unspecified) , what is it?
RESULT: 111 % of control

QUERY: And then NC(=O)c1ccc[n+](CCC[n+]2cccc(C(N)=O)c2)c1 , what is it?
RESULT: 103 % of control

QUERY: And then COC(=O)C1=NC(=S)N=C(C(=O)OC)C1(C)C(=O)c1ccccc1 , what is it?
RESULT: 95 % of control

QUERY: And then COCC#CCN(C)C , what is it?
RESULT: 95 % of control
